System: P. falciparum W2
Assay name: Antiplasmodial susceptibility assay (pLDH), CQ-resistant W2 strain
Type: cell-based
Cond: Plasmodium falciparum; CQ-resistant strain W2; 72 h; pLDH readout; mean of three independent experiments in duplicate; NA = not active; read-out: IC50 P. falciparum W2
Property label: IC50 (µM)

compound="N#Cc1c(-c2ccc(Br)cc2)n[nH]c1Nc1ccccc1 [VIc, reference compound]" property_label=IC50 test_result=19.9

(a) CCCCN(CCCC)CCNc1[nH]nc(-c2ccccc2)c1C#N [14d]
(b) Nc1n[nH]c(N2CCOCC2)c1S(=O)(=O)c1ccccc1 [15b]
(c) CCCCN(CCCC)CCCNc1[nH]nc(-c2ccccc2)c1C#N [14e]
Hey, quick one: sort these by IC50, largest value first please. // list labels; follow requested order
b, a, c

(a) CCCCN(CCCC)CCCNc1nc(N)nc(-c2ccccc2)c1C#N [17e]
(b) CCCCN(CCCC)CCCNc1nc(N)nc(O)c1C#N [16e]
Among a and b , whose measured IC50 is the smaller figure? I would appreciate it if you answered with the label of your choice.
a
(a: 4.18 µM, b: 45 µM)

(a) CC(C)(C)c1n[nH]c(N2CCC(c3ccccc3)CC2)c1C#N [13c]
(b) Nc1n[nH]c(N2CCC(c3ccccc3)CC2)c1S(=O)(=O)c1ccccc1 [15c]
So which one has the bigger IC50 here, a or b ? Indicate which entry you chose by stating its label.
b

(a) CCN(CC)CCCC(C)Nc1[nH]nc(-c2ccccc2)c1C#N (stereo not shown) [14f]
(b) COc1ccc(CCNc2[nH]nc(-c3ccccc3)c2C#N)cc1OC [14a]
Determine, for a and b , which has the greater value of IC50. Output the label that corresponds to your choice.
b
(b: 36.5 µM, a: 13.4 µM)

* * *

System: P. falciparum W2
Assay name: Antiplasmodial susceptibility assay (pLDH), CQ-resistant W2 strain
Type: cell-based
Cond: Plasmodium falciparum, W2, 72 h, read-out: IC50 P. falciparum W2
Property label: IC50 (nM)
Give the quantity in nM, number only.

Hello, please tell me recorded IC50 for this one: CCN(CC)CCCC(C)Nc1ccnc2cc(Cl)ccc12 (stereo not shown) [CQ, chloroquine, reference compound]
450

* * *

Measured viability at 48 h, 10 μM by item
Assay name: MTT cytotoxicity assay on fibroblasts
Assay type: cell-based
Cond: human, GM-6114 embryonic human fibroblasts, compounds tested at 10 μM for 48 h, percentage of control, read-out: Cell viability GM‐6114
// return numeric value only (unit: %, not printed)

Solved cases below.
compound="N#Cc1c(-c2ccccc2)nc(N)nc1N1CCOCC1 [17b]" test_result=66
compound="COc1ccc(CCNc2[nH]nc(N)c2S(=O)(=O)c2ccccc2)cc1OC [15a]" test_result=70

State its viability at 48 h, 10 μM for this compound: CC(C)(C)c1n[nH]c(N2CCC(c3ccccc3)CC2)c1C#N [13c]
94

Please report viability at 48 h, 10 μM for the following compound: COc1ccc(CCNc2[nH]nc(C(C)(C)C)c2C#N)cc1OC [13a]
82

Output measured viability at 48 h, 10 μM for this item: N#Cc1c(-c2ccc(Br)cc2)n[nH]c1Nc1ccccc1 [VIc, reference compound]
67

* * *

System: P. falciparum W2
Assay name: Antiplasmodial susceptibility assay (pLDH), CQ-resistant W2 strain
Assay type: cell-based
Cond: Plasmodium falciparum; CQ-resistant strain W2; 72 h; pLDH readout; mean of three independent experiments in duplicate; NA = not active; read-out: IC50 P. falciparum W2
Property label: IC50 (µM)

Answered examples (3):
molecule="N#Cc1c(-c2ccccc2)n[nH]c1N1CCC(c2ccccc2)CC1 [14c]" assay_target="P. falciparum W2" test_result=23.4
molecule="COc1ccc(CCNc2nc(N)nc(O)c2C#N)cc1OC [16a]" assay_target="P. falciparum W2" test_result=31.7
molecule="COc1ccc(CCNc2[nH]nc(C(C)(C)C)c2C#N)cc1OC [13a]" assay_target="P. falciparum W2" test_result=25.6

(1) N#Cc1c(-c2ccc(Cl)cc2)n[nH]c1Nc1ccccc1 [VIb, reference compound]
(2) N#Cc1c(-c2cccc(Br)c2)n[nH]c1Nc1ccccc1 [VIa, reference compound]
Short answer wanted: higher IC50, 1 or 2 ? Label of pick, please.
1
(1: 32.7 µM, 2: 21 µM)

* * *

Assay name: MTT cytotoxicity assay on fibroblasts
Type: cell-based
Cond: human, GM-6114 embryonic human fibroblasts, compounds tested at 10 μM for 48 h, percentage of control, read-out: Cell viability GM‐6114
Entries and their measured viability at 48 h, 10 μM follow.
// return numeric value only (unit: %, not printed)

Please review the entries below; each comes with its answer.
compound="N#Cc1c(-c2ccc(Cl)cc2)n[nH]c1Nc1ccccc1 [VIb, reference compound]" unit=% test_result=70
compound="COc1ccc(CCNc2nc(N)nc(O)c2C#N)cc1OC [16a]" unit=% test_result=67
compound="N#Cc1c(-c2cccc(Br)c2)n[nH]c1Nc1ccccc1 [VIa, reference compound]" unit=% test_result=78
compound="N#Cc1c(-c2ccccc2)n[nH]c1N1CCC(c2ccccc2)CC1 [14c]" unit=% test_result=76
compound="Nc1n[nH]c(N2CCOCC2)c1S(=O)(=O)c1ccccc1 [15b]" unit=% test_result=87
compound="CCCCN(CCCC)CCCNc1nc(N)nc(-c2ccccc2)c1C#N [17e]" unit=% test_result=67
compound="COc1ccc(CCNc2[nH]nc(-c3ccccc3)c2C#N)cc1OC [14a]" unit=% test_result=87
compound="N#Cc1c(O)nc(N)nc1N1CCOCC1 [16b]" unit=% test_result=65
compound="CCCCN(CCCC)CCCNc1[nH]nc(-c2ccccc2)c1C#N [14e]" unit=% test_result=65

Name the recorded viability at 48 h, 10 μM of the compound listed here: CC(C)(C)c1n[nH]c(N2CCOCC2)c1C#N [13b]
91

* * *

Listing of entries alongside the reported viability at 48 h, 10 μM.
Assay name: MTT cytotoxicity assay on fibroblasts
Assay type: cell-based
Cond: human, GM-6114 embryonic human fibroblasts, compounds tested at 10 μM for 48 h, percentage of control, read-out: Cell viability GM‐6114
Supply the numeric figure in %, leaving out any unit text.

molecule="N#Cc1c(-c2ccccc2)n[nH]c1N1CCOCC1 [14b]" test_result=84
molecule="CCN(CC)CCCC(C)Nc1[nH]nc(-c2ccccc2)c1C#N (stereo not drawn) [14f]" test_result=58
molecule="CCCCN(CCCC)CCCNc1nc(N)nc(O)c1C#N [16e]" test_result=66
molecule="COc1ccc(CCNc2nc(N)nc(-c3ccccc3)c2C#N)cc1OC [17a]" test_result=46
molecule="CCCCN(CCCC)CCNc1[nH]nc(-c2ccccc2)c1C#N [14d]" test_result=71

From here, focus on the item given below.
Determine its reported viability at 48 h, 10 μM: Nc1n[nH]c(N2CCC(c3ccccc3)CC2)c1S(=O)(=O)c1ccccc1 [15c]
102

These data points were gathered from paper PMC12368482.
